# Tested on: IMR-90
# assay remarks: Cytotoxicity against human IMR-90 cells assessed as increase in dead cells at 12 uM measured after 24 hrs by MTT assay relative to control
# Format: cell-based
# protocol conditions: imr-90, 24 h

>  <smiles representation>
Cc1ccccc1-c1nnc(-c2ccc(C(=O)O)cc2)o1

>  <Activity, %>
18

$$$$
>  <smiles representation>
O=C(O)c1cccc(-c2noc(-c3ccccc3F)n2)c1

>  <Activity, %>
30

$$$$
